- Study Target: T1, BsaWI E128A&R130A (UniProt Q6UQ65 1-272, E128A;R130A)
- T1 sequence: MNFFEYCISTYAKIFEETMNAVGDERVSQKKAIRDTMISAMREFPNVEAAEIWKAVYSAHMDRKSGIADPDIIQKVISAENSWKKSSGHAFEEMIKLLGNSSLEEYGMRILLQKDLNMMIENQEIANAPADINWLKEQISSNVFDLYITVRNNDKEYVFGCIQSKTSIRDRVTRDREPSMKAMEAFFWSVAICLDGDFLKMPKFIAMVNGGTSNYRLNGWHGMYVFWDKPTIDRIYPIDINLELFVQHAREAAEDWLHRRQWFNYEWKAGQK
- Assay Explanation: EMSA; 5 mM Ca2+; EMSA: 40 mM Tris-acetate pH 8.3, 0.1 mg/ml BSA, 10% glycerol, 5 mM CaCl2 or 0.1 mM EDTA, 1 nM DNA, room temperature, 15 min
- Measurement Conditions: protein: recombinant; chain copies: 2; label: 33P; blunt
Reported Property: pKd
Give bare numbers, as −log10 of the molar value.

Prompt: Sample SP (dsDNA) DNA 1: GCCTTTCGGTTTACCGGTGTCATTCCGCTG DNA 2: CAGCGGAATGACACCGGTAAACCGAAAGGC — what was its pKd?
Response: 8.68
